B1: library; a variant is named by its letters at N, in order (parent)
chain: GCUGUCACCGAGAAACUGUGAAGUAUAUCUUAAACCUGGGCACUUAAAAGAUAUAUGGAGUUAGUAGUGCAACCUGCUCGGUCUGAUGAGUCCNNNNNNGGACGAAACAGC

variants of: B1; test: normalized RNA/DNA level without ligand (relative to sTRSVctl = 100) (log10 (% of sTRSVctl)); HEK293T; ligand: cyclic di-GMP (c-di-GMP-II aptamer); higher = less ribozyme self-cleavage, higher mRNA level; settings: reporter: mCherry (pCS4076), ligand present: no
measure: normalized RNA/DNA level without ligand (log10)

>>> observed_value("UUGUUU")
1.78
>>> observed_value("GCAGAA")
1.27
>>> observed_value("AAUAUC")
1.67
>>> observed_value("GCACUU")
1.59
>>> observed_value("UUUGAC")
1.71
>>> observed_value("ACGGGA")
1.42
>>> observed_value("CCGUCU")
1.6
>>> observed_value("UAGAUC")
1.59
>>> observed_value("GAGGUA")
1.7
>>> observed_value("UGUGGG")
1.74
>>> observed_value("AGAGGU")
1.57
>>> observed_value("GAAGAG")
1.5
>>> observed_value("AUUACA")
1.63
>>> observed_value("UGGCUG")
1.84
>>> observed_value("UGUCCU")
1.75
>>> observed_value("AACUUA")
1.61
>>> observed_value("UUUUGC")
1.76
>>> observed_value("GGCAUU")
1.66
>>> observed_value("AAUUUU")
1.73
>>> observed_value("CACCCG")
1.81
>>> observed_value("UCCCGU")
1.72
>>> observed_value("GAUCUU")
1.67
